Test: Cytotoxicity against African green monkey Vero cells assessed as reduction in cell viability after 72 hrs by MTT assay
Format: cell-based
Conditions: chlorocebus sabaeus
Reported CC50 at 72 h values are given for each entry in this list.

| molecule | CC50 at 72 h |
| --- | --- |
| CCc1nc2ccc(Cl)cn2c1C(=O)NCc1ccc2c(c1)CCN(Cc1ccc(C(F)(F)F)cc1)C2 | > 64 µg/mL |
| CCc1nc2ccc(Cl)cn2c1C(=O)NCc1ccc2c(c1)CCN(Cc1ccc(Br)cc1)C2 | 30 µg/mL |
| CCc1nc2ccc(Cl)cn2c1C(=O)NCc1ccc2c(c1)CN(C(C)c1ccc(OC(F)(F)F)cc1)C2 (stereo not drawn) | > 64 µg/mL |
| CCc1nc2ccc(Cl)cn2c1C(=O)NCc1ccc2c(c1)CCN(Cc1ccc(C(F)(F)F)cn1)C2 | > 64 µg/mL |
| CCc1nc2cc(Cl)ccn2c1C(=O)NCc1ccc2c(c1)CCN(CCc1ccc(C(F)(F)F)cn1)C2 | 25 µg/mL |
| CCc1nc2ccc(Cl)cn2c1C(=O)NCc1ccc(N2CCC(c3ccc(OC(F)(F)F)cc3)CC2)cc1 [TELACEBEC] | > 64 µg/mL |
| CCc1nc2ccc(Cl)cn2c1C(=O)NCc1ccc2c(c1)CCN(Cc1ccc(C(C)(C)C)cc1)C2 | 37 µg/mL |
| CCc1nc2ccc(Cl)cn2c1C(=O)NCc1ccc2c(c1)CCN(Cc1ccc(F)cc1)C2 | > 64 µg/mL |

---

Assay: AUC (0 to infinity) in specific pathogen free ICR mouse at 25 mg/kg, po administered as single dose by HPLC analysis
Type: ADME, organism-based
Parameters: dose 25 mg/kg, time infinity, route oral
Details: in vivo
Reported log10(AUC(0-inf)) values are given for each entry in this list.
endpoint.label: log10(AUC(0-inf)) (log10 of the value in ng·h/mL)

| compound | log10(AUC(0-inf)) |
| --- | --- |
| CCc1nc2ccc(Cl)cn2c1C(=O)NCc1ccc2c(c1)CN(C(C)c1ccc(OC(F)(F)F)cc1)C2 (stereo not given) | 3.88 |
| CCc1nc2ccc(Cl)cn2c1C(=O)NCc1ccc2c(c1)CN(Cc1ccc(OC(F)(F)F)cc1)C2 | 3.56 |
| CCc1nc2ccc(Cl)cn2c1C(=O)NCc1ccc2c(c1)CCN(Cc1ccc(C(F)(F)F)cc1)C2 | 3.89 |
| CCc1nc2ccc(Cl)cn2c1C(=O)NCc1ccc(N2CCC(c3ccc(OC(F)(F)F)cc3)CC2)cc1 | 4.67 |
| CCc1nc2ccc(Cl)cn2c1C(=O)NCc1ccc2c(c1)CCN(CCc1ccc(C(F)(F)F)nc1)C2 | 3.17 |
| O=c1nc(N2CCN(CC3CCCCC3)CC2)sc2c([N+](=O)[O-])cc(C(F)(F)F)cc12 | 3.20 |
| CCc1nc2cc(Cl)ccn2c1C(=O)NCc1ccc2c(c1)CCN(Cc1cc(F)cc(F)c1)C2 | 4.38 |
| CCc1nc2ccc(Cl)cn2c1C(=O)NCc1ccc2c(c1)CCN(Cc1ccc(C(F)(F)F)cn1)C2 | 4.41 |
| CCc1nc2ccc(Cl)cn2c1C(=O)NCc1ccc2c(c1)CCN(CCc1ccc(C(F)(F)F)cn1)C2 | 4.74 |
| CCc1nc2ccc(Cl)cn2c1C(=O)NCc1ccc2c(c1)CCN(Cc1ccc(C(C)(C)C)cc1)C2 | 3.62 |

---

Experiment: Cytotoxicity against African green monkey Vero cells assessed as reduction in cell viability after 72 hrs by MTT assay
Assay type: cell-based
Details: chlorocebus sabaeus
Reported CC50 at 72 h values are given for each entry in this list.
endpoint.label: CC50 at 72 h

| smi | experimental.result |
| --- | --- |
| CCc1nc2ccc(Cl)cn2c1C(=O)NCc1ccc2c(c1)CCN(CCc1ccc(C(F)(F)F)nc1)C2 | > 64 µg/mL |
| CCc1nc2ccc(Cl)cn2c1C(=O)NCc1ccc2c(c1)CN(Cc1ccc(OC(F)(F)F)cc1)C2 | > 64 µg/mL |
| CCc1nc2cc(Cl)ccn2c1C(=O)NCc1ccc2c(c1)CCN(Cc1ccc([N+](=O)[O-])o1)C2 | > 64 µg/mL |

Where do these numbers come from? They come from ChEMBL document CHEMBL4411339.
